- STUDY_SYSTEM: PLK1 (Homo sapiens, UniProt P53350)
- Sequence (P53350 2-603): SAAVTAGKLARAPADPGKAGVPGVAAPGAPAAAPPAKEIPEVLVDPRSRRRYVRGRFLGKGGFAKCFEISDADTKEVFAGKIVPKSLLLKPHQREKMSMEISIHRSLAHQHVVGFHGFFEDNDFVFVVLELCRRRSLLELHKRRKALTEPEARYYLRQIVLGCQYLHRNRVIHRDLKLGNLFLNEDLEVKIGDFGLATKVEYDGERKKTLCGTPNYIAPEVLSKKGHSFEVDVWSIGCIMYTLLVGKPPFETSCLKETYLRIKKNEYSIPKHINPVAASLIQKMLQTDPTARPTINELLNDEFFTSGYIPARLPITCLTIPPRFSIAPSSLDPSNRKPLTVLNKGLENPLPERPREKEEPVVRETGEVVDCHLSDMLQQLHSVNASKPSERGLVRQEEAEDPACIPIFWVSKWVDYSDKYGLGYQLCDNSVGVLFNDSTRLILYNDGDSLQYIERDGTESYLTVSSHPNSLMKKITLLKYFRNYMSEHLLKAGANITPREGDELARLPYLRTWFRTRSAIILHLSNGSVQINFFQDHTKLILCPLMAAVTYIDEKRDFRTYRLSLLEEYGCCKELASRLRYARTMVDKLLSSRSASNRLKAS
RESULT_TYPE: pIC50
// pIC50 here means minus log10 of the molar concentration (mol/L)

Recorded pIC50 for CC[C@@H]1C(=O)N(C)c2cnc(Nc3ccc(C(=O)NC4CCC(N5C[C@@H](C)O[C@@H](C)C5)CC4)cc3OC)nc2N1C(C)C (stereo partly shown) , please? 8.12

###

- STUDY_SYSTEM: UniProt Q9H4B4
- Sequence (Q9H4B4 whole entry): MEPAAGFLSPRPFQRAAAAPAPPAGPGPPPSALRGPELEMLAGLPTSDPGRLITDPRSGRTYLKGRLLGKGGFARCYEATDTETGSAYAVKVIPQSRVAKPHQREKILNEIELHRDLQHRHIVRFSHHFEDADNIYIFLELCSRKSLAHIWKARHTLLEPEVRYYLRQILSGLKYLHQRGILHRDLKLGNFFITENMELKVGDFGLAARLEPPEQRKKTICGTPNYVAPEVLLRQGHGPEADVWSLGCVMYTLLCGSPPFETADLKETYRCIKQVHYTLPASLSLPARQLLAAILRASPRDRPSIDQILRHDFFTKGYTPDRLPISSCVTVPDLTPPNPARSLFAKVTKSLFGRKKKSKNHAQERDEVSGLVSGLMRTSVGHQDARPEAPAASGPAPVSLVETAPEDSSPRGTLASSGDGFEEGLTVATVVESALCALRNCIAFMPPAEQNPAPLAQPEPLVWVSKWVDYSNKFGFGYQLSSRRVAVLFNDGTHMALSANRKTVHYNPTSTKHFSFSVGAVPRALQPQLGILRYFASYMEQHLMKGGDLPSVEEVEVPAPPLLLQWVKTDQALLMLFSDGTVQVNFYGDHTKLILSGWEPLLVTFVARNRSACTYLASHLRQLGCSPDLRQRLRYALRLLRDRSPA
RESULT_TYPE: IC50 (µM)
Output spec: scalar in µM, unitless text.

Recorded IC50 for CC[C@@H]1C(=O)N(C)c2cnc(Nc3ccc(C(=O)NC4CCC(N5C[C@@H](C)O[C@@H](C)C5)CC4)cc3OC)nc2N1C(C)C (stereo partly shown) [BI 4834] , please? 0.198
